- System: recombinant CETP enzyme (rCETP) (Homo sapiens)
- Sequence (P11597 18-493): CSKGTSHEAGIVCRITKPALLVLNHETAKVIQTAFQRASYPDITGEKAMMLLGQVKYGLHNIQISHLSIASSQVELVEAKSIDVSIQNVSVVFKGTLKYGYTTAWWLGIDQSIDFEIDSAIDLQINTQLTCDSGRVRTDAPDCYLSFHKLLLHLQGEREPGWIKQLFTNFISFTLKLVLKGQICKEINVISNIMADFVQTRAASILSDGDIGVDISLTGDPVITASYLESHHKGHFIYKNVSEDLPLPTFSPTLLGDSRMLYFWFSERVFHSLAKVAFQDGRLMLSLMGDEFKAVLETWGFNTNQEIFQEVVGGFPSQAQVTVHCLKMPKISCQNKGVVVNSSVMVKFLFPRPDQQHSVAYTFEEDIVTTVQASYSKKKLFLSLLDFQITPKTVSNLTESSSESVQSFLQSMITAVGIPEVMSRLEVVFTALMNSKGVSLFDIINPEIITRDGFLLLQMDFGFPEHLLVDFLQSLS
- Method summary: In vitro CETP inhibition assay, fluorometric kit (ROAR Biomedicals)
- Measurement parameters: rCETP 50 ng, 37° C. for 90 minutes, fluorescence Ex 492 nm / Em 516 nm
Recorded IC50 by entry

Query smiles: CC(=O)c1cnc(N(Cc2cc(C(F)(F)F)cc(C(F)(F)F)c2)Cc2cc3c(C)nn(C(C)(C)C)c3nc2N(CC2CC2)CC2CC2)nc1
IC50 [nM]: 41.5

Query smiles: Cc1nn(C(C)(C)C)c2nc(N(CC3CC3)CC3CC3)c(CN(Cc3cc(C(F)(F)F)cc(C(F)(F)F)c3)c3ncc(C(=O)O)cn3)cc12
IC50 [nM]: 61

Query smiles: Cc1nn(C(C)(C)C)c2nc(N(CC3CC3)CC3CC3)c(CN(Cc3cc(C(F)(F)F)cc(C(F)(F)F)c3)c3ncc(N4CCOC4=O)cn3)cc12
IC50 [nM]: 10

Query smiles: Cc1nn(C(C)(C)C)c2nc(N(CC3CC3)CC3CC3)c(CN(Cc3cc(C(F)(F)F)cc(C(F)(F)F)c3)c3ncc(C(N)=O)cn3)cc12
IC50 [nM]: 18

Query smiles: Cc1nn(C(C)(C)C)c2nc(N(CC3CC3)CC3CC3)c(CN(Cc3cc(C(F)(F)F)cc(C(F)(F)F)c3)c3ncc(NC(=O)C4CC4)cn3)cc12
IC50 [nM]: 35

Query smiles: CCOC(=O)c1cnc(N(Cc2cc(C(F)(F)F)cc(C(F)(F)F)c2)Cc2cc3c(C)nn(C(C)(C)C)c3nc2N(CC2CC2)CC2CC2)nc1
IC50 [nM]: 70
